- target.or.system: Akt3 (Homo sapiens, UniProt Q9Y243)
- Sequence (Q9Y243 whole entry): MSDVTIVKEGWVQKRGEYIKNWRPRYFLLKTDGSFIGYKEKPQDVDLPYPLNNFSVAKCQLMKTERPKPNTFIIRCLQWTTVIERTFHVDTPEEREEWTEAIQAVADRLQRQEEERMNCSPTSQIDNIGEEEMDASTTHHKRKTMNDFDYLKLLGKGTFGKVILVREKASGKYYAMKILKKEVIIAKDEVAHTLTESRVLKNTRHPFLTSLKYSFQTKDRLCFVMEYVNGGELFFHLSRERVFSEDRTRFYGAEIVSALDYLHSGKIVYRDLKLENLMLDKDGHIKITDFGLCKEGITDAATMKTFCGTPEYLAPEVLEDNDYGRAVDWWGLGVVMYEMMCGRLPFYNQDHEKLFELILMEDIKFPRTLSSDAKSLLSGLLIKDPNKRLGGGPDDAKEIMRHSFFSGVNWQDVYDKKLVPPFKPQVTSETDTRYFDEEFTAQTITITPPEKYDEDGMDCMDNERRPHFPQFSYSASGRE
- experiment.summary: STK HTRF KinEASE activity-based assay (IC50)
- recorded.conditions: IC50 Akt3, HTRF, ATP at KM, 1 h preincubation
pIC50: −log10 of the molar value.
Entries and their pIC50 values follow.
experimental.endpoint: pIC50

C=CC(=O)Nc1ccc2[nH]c(=O)n(C3CCN(Cc4ccc(-c5ncc(Cn6ccnc6)cc5-c5ccccc5)cc4)CC3)c2c1 [compound 11] = 5.72
C=CC(=O)Nc1ccc2[nH]c(=O)n(C3CCN(Cc4ccc(-c5ncc(Cc6cccc(N)c6)cc5-c5ccccc5)cc4)CC3)c2c1 [compound 17] = 5.68
C=CC(=O)Nc1ccc2[nH]c(=O)n(C3CCN(Cc4ccc(-c5ncc(C(=O)Nc6ccccn6)cc5-c5ccccc5)cc4)CC3)c2c1 [compound 23] = 5.20
C=CC(=O)Nc1ccc2[nH]c(=O)n(C3CCN(Cc4ccc(-c5ncc(Cc6cccnc6)cc5-c5ccccc5)cc4)CC3)c2c1 [compound 21] = 6.57
C=CC(=O)Nc1ccc2[nH]c(=O)n(C3CCN(Cc4ccc(-c5ncc(C)cc5-c5ccccc5)cc4)CC3)c2c1 [compound 2] = 5.12
C=CC(=O)Nc1ccc2[nH]c(=O)n(C3CCN(Cc4ccc(-c5ncc(Cc6cccc(O)c6)cc5-c5ccccc5)cc4)CC3)c2c1 [compound 16] = 5.27
C=CC(=O)Nc1ccc2[nH]c(=O)n(C3CCN(Cc4ccc(-c5ncc(Cc6ccc(N)nc6)cc5-c5ccccc5)cc4)CC3)c2c1 [compound 20] = 6.73
C=CC(=O)Nc1ccc2[nH]c(=O)n(C3CCN(Cc4ccc(-c5ncc(C(=O)NC)cc5-c5ccccc5)cc4)CC3)c2c1 [compound 6] = 5.24

Data credit: paper PMC8421423
